Origin of values: patent US20170008955A1

Target: T1, cSNK:BSA conjugate (bovine, head-to-tail cyclized; conjugated to BSA carrier)
T1 construct: also called BSA-cSNK
T1 sequence (P02769 25-607 limits assumed): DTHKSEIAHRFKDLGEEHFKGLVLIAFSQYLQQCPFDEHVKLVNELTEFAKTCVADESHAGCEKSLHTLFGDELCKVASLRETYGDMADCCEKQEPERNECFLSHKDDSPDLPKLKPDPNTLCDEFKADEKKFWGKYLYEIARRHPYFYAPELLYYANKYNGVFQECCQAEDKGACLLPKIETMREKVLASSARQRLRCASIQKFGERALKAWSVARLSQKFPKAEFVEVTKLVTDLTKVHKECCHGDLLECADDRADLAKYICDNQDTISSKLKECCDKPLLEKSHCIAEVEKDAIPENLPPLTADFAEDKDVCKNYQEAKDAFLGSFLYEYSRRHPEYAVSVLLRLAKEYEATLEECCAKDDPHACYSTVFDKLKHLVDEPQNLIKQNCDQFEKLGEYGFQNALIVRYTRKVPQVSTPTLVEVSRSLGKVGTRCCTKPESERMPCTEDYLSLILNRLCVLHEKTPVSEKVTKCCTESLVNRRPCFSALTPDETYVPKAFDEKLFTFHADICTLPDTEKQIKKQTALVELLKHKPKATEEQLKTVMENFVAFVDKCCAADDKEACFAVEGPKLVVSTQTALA
Assay: BLI 2:1 fit, site 1; 100 nM row
Measured koff values are reported for all entries that follow.
Your answer should be a number followed by the unit of measure.

Input line: Give the reported value of koff for this record: rehu5E3-IgG4 (antibody, V domains shown, human IgG4/kappa; also called IgG4 rehu version) VH: QVQLQQSGPEVVKPGASVKISCKASGYIFTSYYIQWVIHAPGQGLEWIGWIYPGNVNTKYNEKFKGKATLTADKSSSTAYMELSSLRSEDSAVYFCARMDYEAHYWGQGTLVTVSS VL: DIQMTQSPSSLSASLGDRVTLTCRASQEISGYLTWLQQKPEKAIKRLIYAASTLDSGVPKRFSGSRSGSDYTLTISSLQPEDFADYNCLQYANYPRTFGGGTKLEIK
Output line: 0.000386 s⁻¹
